- EXPERIMENTAL_PROTOCOL: Half-life of PF3600 in cells
- Format: in vitro ADME
ENDPOINT_NAME: half-life

Sure, the documented half-life for C[C@@]1(O)CCC[C@H]1n1c(=O)c(C(F)F)cc2cnc(NC3CCN(S(C)(=O)=O)CC3)nc21 is ~30 h
